# EXPERIMENTAL_CONDITIONS: in sec-butanol, 317.25 K
OUTCOME_MEASURE: solubility (mole fraction)
Enter the number alone.

Looking for the measured solubility (mole fraction) of "CCCCCOC(=O)Nc1nc(=O)n([C@@H]2O[C@H](C)[C@@H](O)[C@H]2O)cc1F" , can you help? 0.0301

---

# EXPERIMENTAL_CONDITIONS: in ethylene glycol, 316.85 K
OUTCOME_MEASURE: solubility (mole fraction)
Enter the number alone.

Looking for the measured solubility (mole fraction) of "CCCCCOC(=O)Nc1nc(=O)n([C@@H]2O[C@H](C)[C@@H](O)[C@H]2O)cc1F" , can you help? 0.0661

---

# EXPERIMENTAL_CONDITIONS: in 2-octanol, 312.05 K
OUTCOME_MEASURE: solubility (mole fraction)
Enter the number alone.

Looking for the measured solubility (mole fraction) of "CCCCCOC(=O)Nc1nc(=O)n([C@@H]2O[C@H](C)[C@@H](O)[C@H]2O)cc1F" , can you help? 0.0087

---

# EXPERIMENTAL_CONDITIONS: in ethanol, 307.25 K
OUTCOME_MEASURE: solubility (mole fraction)
Enter the number alone.

Looking for the measured solubility (mole fraction) of "CCCCCOC(=O)Nc1nc(=O)n([C@@H]2O[C@H](C)[C@@H](O)[C@H]2O)cc1F" , can you help? 0.0676

---

# EXPERIMENTAL_CONDITIONS: in isobutanol, 283.15 K
OUTCOME_MEASURE: solubility (mole fraction)
Enter the number alone.

Looking for the measured solubility (mole fraction) of "CCCCCOC(=O)Nc1nc(=O)n([C@@H]2O[C@H](C)[C@@H](O)[C@H]2O)cc1F" , can you help? 0.0018

---

# EXPERIMENTAL_CONDITIONS: in n-propanol, 278 K
OUTCOME_MEASURE: solubility (mole fraction)

Looking for the measured solubility (mole fraction) of "CCCCCOC(=O)Nc1nc(=O)n([C@@H]2O[C@H](C)[C@@H](O)[C@H]2O)cc1F" , can you help? 0.0024

---

# EXPERIMENTAL_CONDITIONS: in 2-ethylhexanol, 287.88 K
OUTCOME_MEASURE: solubility (mole fraction)
Enter the number alone.

Looking for the measured solubility (mole fraction) of "CCCCCOC(=O)Nc1nc(=O)n([C@@H]2O[C@H](C)[C@@H](O)[C@H]2O)cc1F" , can you help? 0.0019

---

# EXPERIMENTAL_CONDITIONS: in isopropanol, 293.16 K
OUTCOME_MEASURE: solubility (mole fraction)

Looking for the measured solubility (mole fraction) of "CCCCCOC(=O)Nc1nc(=O)n([C@@H]2O[C@H](C)[C@@H](O)[C@H]2O)cc1F" , can you help? 0.0037

---

# EXPERIMENTAL_CONDITIONS: in 2-octanol, 278.04 K
OUTCOME_MEASURE: solubility (mole fraction)

Looking for the measured solubility (mole fraction) of "CCCCCOC(=O)Nc1nc(=O)n([C@@H]2O[C@H](C)[C@@H](O)[C@H]2O)cc1F" , can you help? 0.001

---

# EXPERIMENTAL_CONDITIONS: in sec-butanol, 298.44 K
OUTCOME_MEASURE: solubility (mole fraction)
Enter the number alone.

Looking for the measured solubility (mole fraction) of "CCCCCOC(=O)Nc1nc(=O)n([C@@H]2O[C@H](C)[C@@H](O)[C@H]2O)cc1F" , can you help? 0.0065

---

# EXPERIMENTAL_CONDITIONS: in water, 283.2 K
OUTCOME_MEASURE: solubility (mole fraction)
Enter the number alone.

Looking for the measured solubility (mole fraction) of "CCCCCOC(=O)Nc1nc(=O)n([C@@H]2O[C@H](C)[C@@H](O)[C@H]2O)cc1F" , can you help? 0.001

---

# EXPERIMENTAL_CONDITIONS: in n-hexanol, 278.1 K
OUTCOME_MEASURE: solubility (mole fraction)

Looking for the measured solubility (mole fraction) of "CCCCCOC(=O)Nc1nc(=O)n([C@@H]2O[C@H](C)[C@@H](O)[C@H]2O)cc1F" , can you help? 0.0018

---

# EXPERIMENTAL_CONDITIONS: in n-pentanol, 302.27 K
OUTCOME_MEASURE: solubility (mole fraction)

Looking for the measured solubility (mole fraction) of "CCCCCOC(=O)Nc1nc(=O)n([C@@H]2O[C@H](C)[C@@H](O)[C@H]2O)cc1F" , can you help? 0.0146

---

# EXPERIMENTAL_CONDITIONS: in isopropanol, 288.07 K
OUTCOME_MEASURE: solubility (mole fraction)
Enter the number alone.

Looking for the measured solubility (mole fraction) of "CCCCCOC(=O)Nc1nc(=O)n([C@@H]2O[C@H](C)[C@@H](O)[C@H]2O)cc1F" , can you help? 0.0024

---

# EXPERIMENTAL_CONDITIONS: in n-heptanol, 292.53 K
OUTCOME_MEASURE: solubility (mole fraction)
Enter the number alone.

Looking for the measured solubility (mole fraction) of "CCCCCOC(=O)Nc1nc(=O)n([C@@H]2O[C@H](C)[C@@H](O)[C@H]2O)cc1F" , can you help? 0.0047

---

# EXPERIMENTAL_CONDITIONS: in sec-butanol, 293.35 K
OUTCOME_MEASURE: solubility (mole fraction)
Enter the number alone.

Looking for the measured solubility (mole fraction) of "CCCCCOC(=O)Nc1nc(=O)n([C@@H]2O[C@H](C)[C@@H](O)[C@H]2O)cc1F" , can you help? 0.0043

---

# EXPERIMENTAL_CONDITIONS: in tert-butanol, 299.65 K
OUTCOME_MEASURE: solubility (mole fraction)
Enter the number alone.

Looking for the measured solubility (mole fraction) of "CCCCCOC(=O)Nc1nc(=O)n([C@@H]2O[C@H](C)[C@@H](O)[C@H]2O)cc1F" , can you help? 0.0078

---

# EXPERIMENTAL_CONDITIONS: in n-propanol, 307.07 K
OUTCOME_MEASURE: solubility (mole fraction)
Enter the number alone.

Looking for the measured solubility (mole fraction) of "CCCCCOC(=O)Nc1nc(=O)n([C@@H]2O[C@H](C)[C@@H](O)[C@H]2O)cc1F" , can you help? 0.0309

---

# EXPERIMENTAL_CONDITIONS: in n-propanol, 302.29 K
OUTCOME_MEASURE: solubility (mole fraction)
Enter the number alone.

Looking for the measured solubility (mole fraction) of "CCCCCOC(=O)Nc1nc(=O)n([C@@H]2O[C@H](C)[C@@H](O)[C@H]2O)cc1F" , can you help? 0.0205

---

# EXPERIMENTAL_CONDITIONS: in 2-ethylhexanol, 312.04 K
OUTCOME_MEASURE: solubility (mole fraction)

Looking for the measured solubility (mole fraction) of "CCCCCOC(=O)Nc1nc(=O)n([C@@H]2O[C@H](C)[C@@H](O)[C@H]2O)cc1F" , can you help? 0.0096

---

# EXPERIMENTAL_CONDITIONS: in 2-octanol, 307.15 K
OUTCOME_MEASURE: solubility (mole fraction)
Enter the number alone.

Looking for the measured solubility (mole fraction) of "CCCCCOC(=O)Nc1nc(=O)n([C@@H]2O[C@H](C)[C@@H](O)[C@H]2O)cc1F" , can you help? 0.0064

---

# EXPERIMENTAL_CONDITIONS: in n-pentanol, 282.97 K
OUTCOME_MEASURE: solubility (mole fraction)
Enter the number alone.

Looking for the measured solubility (mole fraction) of "CCCCCOC(=O)Nc1nc(=O)n([C@@H]2O[C@H](C)[C@@H](O)[C@H]2O)cc1F" , can you help? 0.0031

---

# EXPERIMENTAL_CONDITIONS: in n-octanol, 312.35 K
OUTCOME_MEASURE: solubility (mole fraction)
Enter the number alone.

Looking for the measured solubility (mole fraction) of "CCCCCOC(=O)Nc1nc(=O)n([C@@H]2O[C@H](C)[C@@H](O)[C@H]2O)cc1F" , can you help? 0.0173

---

# EXPERIMENTAL_CONDITIONS: in n-octanol, 307.5 K
OUTCOME_MEASURE: solubility (mole fraction)
Enter the number alone.

Looking for the measured solubility (mole fraction) of "CCCCCOC(=O)Nc1nc(=O)n([C@@H]2O[C@H](C)[C@@H](O)[C@H]2O)cc1F" , can you help? 0.0131

---

# EXPERIMENTAL_CONDITIONS: in n-octanol, 292.95 K
OUTCOME_MEASURE: solubility (mole fraction)
Enter the number alone.

Looking for the measured solubility (mole fraction) of "CCCCCOC(=O)Nc1nc(=O)n([C@@H]2O[C@H](C)[C@@H](O)[C@H]2O)cc1F" , can you help? 0.0055

---

# EXPERIMENTAL_CONDITIONS: in sec-butanol, 312.44 K
OUTCOME_MEASURE: solubility (mole fraction)

Looking for the measured solubility (mole fraction) of "CCCCCOC(=O)Nc1nc(=O)n([C@@H]2O[C@H](C)[C@@H](O)[C@H]2O)cc1F" , can you help? 0.0207

All values here come from BigSolDB 2.1.
